Each entry below lists one item and its recorded Duration value.
Tested on: anaesthetized normotensive rats
ASSAY_REMARKS: In vivo blood pressure, anaesthetized normotensive rats, intravenous route
Design: species or system rat
CONDITIONS_USED: 0.3 mg/kg intravenous, 3 hours observation
Please respond with the number in min and leave the unit unwritten.

Past entries and their recorded results:
- O=C1CCC(=O)N1CCCN1CCN(c2ccc(F)cc2)CC1 [Compound 1]: 15.0
- COc1ccccc1N1CCN(CCCN2C(=O)CCC2=O)CC1 [Compound 2]: 120.0
- O=C1CCCC(=O)N1CCCN1CCN(c2ccc(F)cc2)CC1 [Compound 14]: 60.0

Proceed to the following item.
Entry under review: O=C1CCCC(=O)N1CCCN1CCN(c2ccccc2F)CC1 [Compound 17] . Reported Duration?
120.0
